Give cytotoxicity at 70.5 h for every item shown.
assayMethodText: Human HepG2 cell viability assay in 384 well format
Assay type: toxicity, cell-based
Parameters: dose 125 nL, time 70.5 hour; concentration not given beside the values
conditionNotes: HepG2 cells, read-out: Inhibition
One number for each entry, in %.

Answered examples (3):
> print(dat)
                                   compound        reportedendpoint  unitsymbol  reportedresult
1  Cc1occc1CNC(=O)N1CCC(Cc2cnn(C)c2)C1 (centres undefined)  cytotoxicity at 70.5 h           %           -2.55
2  Cc1csc(CN(C)C(=O)C2CCC(=O)N(CCN(C)C)C2)n1 (centres undefined)  cytotoxicity at 70.5 h           %           -3.99
3     CCCNS(=O)(=O)c1ccc2[nH]c(=O)cc(C)c2c1  cytotoxicity at 70.5 h           %           -12.9

Respectfully, I request cytotoxicity at 70.5 h for each entry included below.
1. O=C(Cn1ccc2ccccc21)N1CCC(Oc2cnccn2)CC1
2. CCC(C(=O)NCc1ccncc1)N(c1ccc(F)cc1)S(C)(=O)=O (centres undefined)
3. CCCc1noc(CN(C)C(=O)C2COc3ccccc3C2)n1 (centres undefined)

RESULT:
[-7, -0.482, -16.1]

----------
Please go through the items and note down their cytotoxicity at 70.5 h.
assayMethodText: Human HepG2 cell viability assay in 384 well format
Format: toxicity, cell-based
Design: dose 125 nL, time 70.5 hour; concentration not given beside the values
conditionNotes: HepG2 cells, read-out: Inhibition
Give bare numbers, in %.

Recorded cytotoxicity at 70.5 h, per entry:
> print(dat)
                                   compound        reportedendpoint  unitsymbol  reportedresult
1  CN(C)[C@@H]1C[C@@H](CO)N(C(=O)Nc2ccc(SC(F)(F)F)cc2)C1  cytotoxicity at 70.5 h           %            4.27
2  CN(C)S(=O)(=O)N1C[C@H]2CCC[C@@]2(COCc2ccccn2)C1  cytotoxicity at 70.5 h           %            13.2
3  COC(=O)C(NC(=O)COC1CCCCC1)c1ccccc1 (stereo unspecified)  cytotoxicity at 70.5 h           %            5.11
4  CCc1ccc(C(COC)NC(=O)c2ccsc2)o1 (stereo unspecified)  cytotoxicity at 70.5 h           %           -3.72
5  CC(CO)NC(=O)c1ccc(NCc2cc(C#N)ccc2F)cc1 (stereo unspecified)  cytotoxicity at 70.5 h           %          -0.552

Dear reader, for each entry below, please note its cytotoxicity at 70.5 h.
1. COc1c(F)cccc1C(=O)NC(C)c1cnn(C)c1 (stereo unspecified)
2. CCn1ccnc1C1CCN(C(=O)C(O)c2ccc(Cl)cc2)CC1 (stereo unspecified)
3. COc1ccccc1Oc1cncc(C2CCCN(CC(N)=O)C2)n1 (stereo unspecified)

RESULT:
[-8.49, -2.92, 11.9]

----------
assayMethodText: Human HepG2 cell viability assay in 384 well format
Type: toxicity, cell-based
Set-up: dose 125 nL, time 70.5 hour; concentration not given beside the values
conditionNotes: HepG2 cells, read-out: Inhibition
Under this convention, satisfied denotes cytotoxicity at 70.5 h strictly below -10% and not satisfied denotes cytotoxicity at 70.5 h at or above -10%.

Answered cases to consult:
> print(dat)
                                   compound  assignedclass
1  CCOC(=O)c1n[nH]cc1CN1CCOC(Cc2ccc(OC)cc2)C1 (stereo unspecified)  not satisfied
2  CSC1(CNC(=O)NC(C)c2ccc(F)cc2)CCOCC1 (stereo unspecified)  not satisfied
3  COc1cc2c(cc1OC)C(=O)C(Sc1nnnn1C)C2 (stereo unspecified)      satisfied
4  COc1ccc(CC(=O)Nc2c(C)nc(N3CCOCC3)nc2C)cc1  not satisfied
5  Cc1oc(-c2ccco2)nc1CN1CCc2cnc(C(C)C)nc2C1      satisfied

QUERY: Item CCn1c(Cn2cncn2)nnc1C1CCN(Cc2ccccn2)CC1 : cytotoxicity at 70.5 h beneath -10%, strictly?
RESULT: not satisfied

QUERY: Okay, and Cc1ccc(CN2CC[C@H]3OCC[C@@]3(C(=O)N3CCCO3)C2)s1 ?
RESULT: not satisfied

QUERY: Field entry: N#Cc1ccc(OCCNc2cccc(C(=O)N3CCOCC3)c2)cc1
RESULT: satisfied

QUERY: Now try CN(C)C(=O)c1cc(NC(=O)N2CCCC(C(F)(F)F)C2)ccn1 (stereo unspecified) .
RESULT: not satisfied

QUERY: Now this one: CO[C@H]1CN(CC2CCOCC2)[C@@H]2CCCO[C@H]12
RESULT: not satisfied
